Origin of values: the supplement of paper PMC10567573

B1: TSPAN10 (parent)
chain: EGCGPPLRRWLRANLAASGGYAIA

- Variants of: B1
- assay comment: protein stability index of a GFP-peptide fusion (GPS, HEK-293T) (PSI 1-6); higher = more stable;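 note: lentivirally expressed fusions sorted by FACS into six bins by GFP to DsRed ratio, PSI derived from sequencing read proportions per bin multiplied by bin number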
- measurement conditions: c terminus: a fixed tail appended

[
  {
    "change": "A13Q",
    "protein stability index": 2.83
  },
  {
    "change": "G19R",
    "protein stability index": 2.33
  },
  {
    "change": "Y21L",
    "protein stability index": 2.11
  },
  {
    "change": "R12W",
    "protein stability index": 3.67
  },
  {
    "change": "N14E",
    "protein stability index": 1.47
  },
  {
    "change": "A16T",
    "protein stability index": 1.63
  },
  {
    "change": "A13Y",
    "protein stability index": 1.66
  },
  {
    "change": "A13G",
    "protein stability index": 3.35
  },
  {
    "change": "I23W",
    "protein stability index": 1.59
  },
  {
    "change": "A17K",
    "protein stability index": 1.7
  },
  {
    "change": "Y21H",
    "protein stability index": 2.39
  },
  {
    "change": "A17H",
    "protein stability index": 2
  },
  {
    "change": "L7K",
    "protein stability index": 1.97
  },
  {
    "change": "I23Y",
    "protein stability index": 1.73
  },
  {
    "change": "A17C",
    "protein stability index": 1.39
  },
  {
    "change": "N14F",
    "protein stability index": 1.92
  },
  {
    "change": "E1A",
    "protein stability index": 1.63
  },
  {
    "change": "Y21W",
    "protein stability index": 1.47
  },
  {
    "change": "L15A",
    "protein stability index": 2.36
  },
  {
    "change": "G20I",
    "protein stability index": 1.49
  },
  {
    "change": "R8Q",
    "protein stability index": 2.05
  },
  {
    "change": "W10I",
    "protein stability index": 2.94
  },
  {
    "change": "Y21E",
    "protein stability index": 2.4
  },
  {
    "change": "L11T",
    "protein stability index": 2.89
  },
  {
    "change": "R12N",
    "protein stability index": 1.73
  },
  {
    "change": "G20K",
    "protein stability index": 2.77
  },
  {
    "change": "Y21G",
    "protein stability index": 2.11
  },
  {
    "change": "P5A",
    "protein stability index": 2.08
  },
  {
    "change": "S18H",
    "protein stability index": 1.87
  },
  {
    "change": "A13V",
    "protein stability index": 1.75
  },
  {
    "change": "L15D",
    "protein stability index": 2.81
  },
  {
    "change": "R9C",
    "protein stability index": 1.29
  },
  {
    "change": "A24R",
    "protein stability index": 2.12
  },
  {
    "change": "A13M",
    "protein stability index": 1.4
  },
  {
    "change": "G2D",
    "protein stability index": 1.91
  },
  {
    "change": "R9T",
    "protein stability index": 1.7
  },
  {
    "change": "L11I",
    "protein stability index": 1.91
  },
  {
    "change": "A16K",
    "protein stability index": 2.31
  },
  {
    "change": "R9H",
    "protein stability index": 1.58
  },
  {
    "change": "A17G",
    "protein stability index": 1.59
  },
  {
    "change": "P6D",
    "protein stability index": 1.94
  },
  {
    "change": "S18N",
    "protein stability index": 2.01
  },
  {
    "change": "R8V",
    "protein stability index": 2.7
  },
  {
    "change": "N14L",
    "protein stability index": 1.02
  },
  {
    "change": "L11S",
    "protein stability index": 2.61
  },
  {
    "change": "W10Q",
    "protein stability index": 2.24
  },
  {
    "change": "R9A",
    "protein stability index": 1.55
  },
  {
    "change": "G20Y",
    "protein stability index": 1.66
  },
  {
    "change": "W10V",
    "protein stability index": 1.89
  },
  {
    "change": "G19F",
    "protein stability index": 1.79
  },
  {
    "change": "P5F",
    "protein stability index": 2.73
  },
  {
    "change": "G19T",
    "protein stability index": 1.74
  },
  {
    "change": "R9V",
    "protein stability index": 1.65
  },
  {
    "change": "G20E",
    "protein stability index": 2.33
  },
  {
    "change": "I23R",
    "protein stability index": 2.6
  },
  {
    "change": "G19H",
    "protein stability index": 2.32
  },
  {
    "change": "G19A",
    "protein stability index": 1.11
  },
  {
    "change": "L11A",
    "protein stability index": 2.55
  },
  {
    "change": "R12A",
    "protein stability index": 1.75
  },
  {
    "change": "C3M",
    "protein stability index": 1.78
  },
  {
    "change": "L11M",
    "protein stability index": 2.51
  },
  {
    "change": "A24N",
    "protein stability index": 2.27
  },
  {
    "change": "R8C",
    "protein stability index": 1.53
  },
  {
    "change": "G19V",
    "protein stability index": 1.67
  },
  {
    "change": "A24E",
    "protein stability index": 2.92
  },
  {
    "change": "C3V",
    "protein stability index": 1.76
  },
  {
    "change": "Y21P",
    "protein stability index": 2.07
  },
  {
    "change": "P5V",
    "protein stability index": 2.15
  }
]
